This collection of values is drawn from PubChem BioAssay AID1159580.

Reported normalized growth is given for each of the following compounds.
test: chemical genetic growth profiling, strain panel (AID 1159580);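 note: tested at 20 µM; growth read once vehicle control cultures reached saturation at 30 °C; 1 = growth at the plate median or of vehicle wells; lower values mean less growth of the strain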; settings: S. cerevisiae deletion strains, growth OD, locus YMR263W, strain SAP30, hits give low values
In all, about 5,500 compounds went through this assay and about 2,000 (36%) were called active. Roughly 18% stayed inconclusive and do not appear here. The list shows a part of the results.

Previously resolved entries follow.
compound: COc1cc(-c2coc3cc(OCc4ccccc4)c(OC)c(O)c3c2=O)cc(O)c1OC
normalized growth: 0.893 (inactive)
//
compound: CCCCC#Cc1nc(N)c2ncn([C@@H]3O[C@H](C(=O)NCC)[C@@H](O)[C@H]3O)c2n1
normalized growth: 0.996 (inactive)
//
compound: COc1ccccc1N=C(N)SCc1ccccc1
normalized growth: 1.01 (inactive)

Task item: Can you share its normalized growth? I mean this compound: `Cc1ccc(Cl)c(Nc2ccccc2C(=O)O)c1Cl`
Reply: 0.873 (active)

Task item: Ok, now C=C1C(C)C2C(Cc3ccccc3)NC(=O)C23OC(=O)/C=C/C(O)CCCC(C)C/C=C/C3C1O (stereo unspecified)
Reply: 1.01 (inactive)

Task item: What do you have for `Cc1onc(-c2c(F)cccc2Cl)c1C(=O)c1ccc(F)cc1` ?
Reply: 0.978 (inactive)

Task item: Next compound: CC(C)(C)C1(O)CCN2CC3c4ccccc4CCc4cccc(c43)C2C1 (stereo unspecified)
Reply: 1.01 (inactive)
